I'd appreciate it if you could supply GI50 values for the items below.
# Tested on: RXF 393
# methodDescription: NCI tumour cell line growth inhibition, 48 h
Activity calls are given as the source filed them. No stated cut-off is given here; in the data, active = GI50 up to about 1.1 µM and inactive = higher.

In: Specify reported GI50 for the compound shown: O=C(O)CSCC(=O)Nc1ccc2cccc3c2c1CC3
Out: > 100 µM (inactive)

In: Specify reported GI50 for the compound shown: Brc1cccc(C2SCc3nc4ccccc4n32)c1 (centres undefined)
Out: 5.93 µM (inactive)

In: Specify reported GI50 for the compound shown: c1ccc(-c2nc3ccccc3n3c(CN4CCCCC4)nnc23)cc1
Out: 35.7 µM (inactive)

In: Specify reported GI50 for the compound shown: C=C1c2cc3c(cc2CC12Cc1cc4c(cc1C2=O)CCC4)CCC3 (centres undefined)
Out: > 100 µM (inactive)
